- TARGET SYSTEM: human PAR2 (Homo sapiens, UniProt P55085)
- Sequence (P55085 26-397): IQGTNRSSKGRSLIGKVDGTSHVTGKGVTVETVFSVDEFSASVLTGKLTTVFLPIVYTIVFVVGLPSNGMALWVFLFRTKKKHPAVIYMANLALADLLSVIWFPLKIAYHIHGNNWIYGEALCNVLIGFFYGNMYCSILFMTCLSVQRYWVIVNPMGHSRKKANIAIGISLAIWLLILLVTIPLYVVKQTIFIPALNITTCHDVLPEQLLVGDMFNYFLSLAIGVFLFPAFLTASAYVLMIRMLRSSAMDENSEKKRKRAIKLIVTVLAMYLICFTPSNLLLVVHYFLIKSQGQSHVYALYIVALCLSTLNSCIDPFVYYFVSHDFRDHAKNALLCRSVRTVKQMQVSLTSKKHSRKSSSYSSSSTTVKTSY
- MEASUREMENT NOTES: JNK activity, agent alone, PAR2 NCTC2544 cells (clone G)
- SETTINGS: 30 min, no TNFα; densitometry; mean ± s.e.m, at least 4 experiments; read-out: EC50, stimulation of JNK activity by peptide alone
Residues, ends and D or L forms follow the SMILES beside them.
VALUE KIND: pEC50
API: returns pEC50 as number; meaning -log10 of concentration in mol/L.

Q: Looking for the measured pEC50 of CC[C@H](C)[C@H](NC(=O)[C@H](CC(C)C)NC(=O)[C@@H](N)CO)C(=O)NCC(=O)N[C@@H](CCCCN)C(=O)N[C@H](C(=O)O)C(C)C [SLIGKV-OH] (H-SLIGKV-OH) , can you help?
Ans: 4.99

Reference source for all entries: paper PMC2806525
